Task for the reader: assign each of the following molecules its reported TFE3 %.
System: endogenous TFE3
Test: TFE3 nuclear translocation, immunocytochemistry high-content imaging
Assay type: cell-based
Conditions: PKIS2 primary screening
Just the number please, in %, no unit attached.

Given the entry CCn1c(-c2nonc2N)nc2ccccc21 [UNC10112830A] , report its measured TFE3 %.
10.17

Given the entry CCn1c(-c2c(N)noc2C)nc2cnccc21 [UNC10225095A] , report its measured TFE3 %.
10.37

Given the entry COc1cc(Nc2ncc3c(C)nc(-c4cc5ccccc5[nH]4)n3n2)cc(OC)c1OC [UNC10225084A] , report its measured TFE3 %.
14.67

Given the entry NCCNS(=O)(=O)c1ccc(-c2ccnc3[nH]ccc23)cc1 [UNC10225023B] , report its measured TFE3 %.
14.03

Given the entry Cl.c1ccc(Oc2ccc(Nc3ccnc4cc(-c5ccc(CN6CCNCC6)o5)ccc34)cc2)nc1 [UNC10225130B] , report its measured TFE3 %.
38.53

Given the entry Nc1nccc(-c2c(-c3ccc(F)cc3)ncn2C2CCN(Cc3ccccc3)CC2)n1 [UNC10225058A] , report its measured TFE3 %.
7.38

Given the entry Cc1c(Cn2c(C)nn3c(=O)cc(N4CCO[C@H](C)C4)nc23)cccc1C(F)(F)F [UNC10225403A] , report its measured TFE3 %.
10.58

Given the entry "O=C(Nc1n[nH]c2nc(-c3ccco3)c(Br)cc12)c1ccc(CN2CCCC2)cc1" , report its measured TFE3 %.
19.33

Given the entry CCn1c(-c2ccncc2)nc2cnccc21 [UNC10225204A] , report its measured TFE3 %.
12.32

Given the entry Nc1nccc(-c2c(-c3ccc(F)cc3)ncn2C2CCN(CC(F)(F)F)CC2)n1 [UNC10225173A] , report its measured TFE3 %.
11.80

Given the entry Nc1nc(-c2cccnc2)c(-c2ccnc3ccccc23)s1 [UNC10225309A] , report its measured TFE3 %.
14.98

Given the entry "COC(=O)Nc1nc2ccc(Oc3ccc(NC(=O)Nc4cc(C(F)(F)F)ccc4F)cc3)cc2[nH]1" , report its measured TFE3 %.
33.87

Given the entry Cc1ccc(NC(=O)Nc2ccc(Cl)c(C(F)(F)F)c2)cc1-c1ccc(C(=O)Nc2ccncc2)cc1 [UNC10225359A] , report its measured TFE3 %.
18.34

Given the entry Cc1nnc(-c2ccc(C)c(-c3ccc(C(=O)Nc4ccc(NS(C)(=O)=O)cc4)cc3)c2)o1 [UNC10225285A] , report its measured TFE3 %.
14.74

Given the entry COc1ccc(Nc2nccc(N3CCC(NC(=O)Nc4cccc(C(C)=O)c4)C3)n2)cc1 (stereo not drawn) , report its measured TFE3 %.
14.27

Given the entry "COC(=O)c1cccc(NC(=O)NCCNc2ccnc(Nc3ccc(F)cc3)n2)c1" , report its measured TFE3 %.
3.78

Given the entry COc1ccc(-n2cnc3c(N)ncnc32)cc1 [UNC10225413A] , report its measured TFE3 %.
13.51

Given the entry CC(=O)Nc1ccc(COc2ccc(Nc3ccnc4cc(-c5ccccn5)ccc34)cc2)cc1.Cl [UNC10225390A] , report its measured TFE3 %.
50.24

---

System: SH-SY5Y cells
Assay: Nuclear count from microscopy images (cellular growth and toxicity); further: reference of the scale not given here
Settings: PKIS2 primary screening
Task for the reader: assign each of the following molecules its reported Nuclear Count.
Number only, please.

Given the entry Nc1ncc(-c2cccnc2)c2scc(-c3ccc4c(c3)CCN4C(=O)Cc3ccccc3)c12 [UNC10225369A] , report its measured Nuclear Count.
102.35

Given the entry Cl.Cl.Cl.Fc1ccc(-c2ncn(C3CCNCC3)c2-c2ccnc(Nc3ccccc3)n2)cc1 [UNC10225420A] , report its measured Nuclear Count.
78.56

Given the entry CCn1c(-c2c(N)noc2C)nc2cnccc21 [UNC10225095A] , report its measured Nuclear Count.
110.85

Given the entry CSc1cccc2c(-c3ccncn3)c(-c3ccc(F)cc3)nn12 [UNC10225437A] , report its measured Nuclear Count.
89.95

Given the entry Cc1ccc2c(-c3ccncc3)c(-c3ccc(F)cc3)nn2c1.Cl [UNC10225321A] , report its measured Nuclear Count.
114.41

Given the entry O=C(O)C(F)(F)F.O=c1[nH]ccc2nc(N[C@@H]3CCNC3)nc(Nc3cc(Cl)cc(Cl)c3)c12 [UNC10225257A] , report its measured Nuclear Count.
111.57

Given the entry O=c1cc(N2CCOCC2)nc2n(Cc3cccc(Cl)c3Cl)c3ccccc3n12 [UNC10225136A] , report its measured Nuclear Count.
90.29

Given the entry COc1cc2c(Nc3ccc(NC(=O)c4ccccc4)cc3)ncnc2cc1OCCCN1CCOCC1 [UNC10225250A] , report its measured Nuclear Count.
140.08

Given the entry Cl.Cl.NCC(NCc1ccc(-c2ccnc3[nH]ccc23)s1)c1ccccc1 (centres unmarked) [UNC10225471A] , report its measured Nuclear Count.
123.37

Given the entry Cl.O=S(=O)(c1cccc(F)c1)c1ccc(Nc2ncnc3cc(Br)sc23)cc1Cl [UNC10224990A] , report its measured Nuclear Count.
81.79

Given the entry "O=C(Nc1n[nH]c2cc(-c3cccc(F)c3F)ccc12)C1CC1" , report its measured Nuclear Count.
112.33

Given the entry "Cc1cccc(-c2nc(Nc3cccc(C(N)=O)c3)c3ccccc3n2)n1" , report its measured Nuclear Count.
75.33

Given the entry COc1ccc(Nc2nccc(N3CCC(NC(=O)c4cccc(NC(C)=O)c4)C3)n2)cc1 (centres unmarked) , report its measured Nuclear Count.
135.73

Given the entry COc1cc(Nc2ccnc3cc(-c4ccncc4)ccc23)cc(OC)c1OC.Cl [UNC10225049A] , report its measured Nuclear Count.
54.75

Given the entry Cl.Oc1cc(-c2nc(-c3ccccc3)[nH]c2-c2ccncc2)ccc1Cl [UNC10225128B] , report its measured Nuclear Count.
80.05

Given the entry CS(=O)(=O)CCNCc1ccc(-c2ccc3ncnc(Nc4ccc(OCc5ccccc5)c(Cl)c4)c3c2)o1.Cl [UNC10112604A] , report its measured Nuclear Count.
96.24

Given the entry COc1cc(Nc2ccnc3ccc(C(F)(F)F)cc23)cc(OC)c1OC [UNC10225109A] , report its measured Nuclear Count.
107.71

Given the entry CCn1c(-c2nonc2N)nc2c(C#CC(C)(C)O)ncc(OCCCCN)c21.O=C(O)C(F)(F)F.O=C(O)C(F)(F)F [UNC10225393A] , report its measured Nuclear Count.
121.84

Given the entry Cc1ccc(NC(=O)Nc2ccccc2F)cc1-c1ccc(C(=O)Nc2ccncc2)cc1 [UNC10225398A] , report its measured Nuclear Count.
104.03

Given the entry Cl.Cn1ccc(-c2cccc(Nc3ccnc4cc(-c5nccs5)ccc34)c2)n1 [UNC10225141A] , report its measured Nuclear Count.
43.03

Given the entry COC(=O)c1cccc(NC(=O)NC2CCN(c3ccnc(Nc4cc(OC)c(OC)c(OC)c4)n3)C2)c1 (centres unmarked) , report its measured Nuclear Count.
122.32

Given the entry "C[C@@H]1CCCCN1c1cc(-c2ccc3c(N)n[nH]c3c2)nc(N)n1" , report its measured Nuclear Count.
88.84

Given the entry Cl.c1ccc(Cn2cnc3cc(Nc4ncnc5ccccc45)ccc32)cc1 [UNC10225378A] , report its measured Nuclear Count.
84.68

Given the entry Cl.c1ccc(-c2ccc3c(Nc4ccc5[nH]ncc5c4)ccnc3c2)nc1 [UNC10225007A] , report its measured Nuclear Count.
105.78

Given the entry Cn1cc(-c2ccc3c(c2)CCN3C(=O)Cc2cccc(Cl)c2)c2c(N)ncnc21 [UNC10225039A] , report its measured Nuclear Count.
137.18

Given the entry Cc1c(Cn2c3ccccc3n3c(=O)cc(N4CCOCC4)nc23)cccc1C(F)(F)F [UNC10225195A] , report its measured Nuclear Count.
108.51

Given the entry O=c1cc(N2CCOCC2)nc2n(Cc3cccc(Cl)c3)ccn12 [UNC10225131A] , report its measured Nuclear Count.
104.22

Given the entry "Nc1nc(Nc2ccccc2)cc(-c2ccc3c(N)n[nH]c3c2)n1" , report its measured Nuclear Count.
92.29

Given the entry Cc1cccc(Nc2nc(NCCN)ncc2C(N)=O)c1 [UNC10225029A] , report its measured Nuclear Count.
111.31

Given the entry "COc1ccc(Nc2nccc(NCCNC(=O)Nc3ccccc3F)n2)cc1" , report its measured Nuclear Count.
49.37

Given the entry FC(F)(F)c1cc(Nc2nccc(-c3c(-c4ccc(Cl)cc4)nn4ncccc34)n2)ccc1Cl [UNC10225192A] , report its measured Nuclear Count.
86.86

Given the entry COc1ccc(Nc2nccc(N3CCC(NC(=O)Nc4cccc(OC)c4)C3)n2)cc1 (centres unmarked) , report its measured Nuclear Count.
103.65

Given the entry Cc1cccc2c(-c3ccncn3)c(-c3ccc(F)cc3)nn12 [UNC10225097A] , report its measured Nuclear Count.
79.09

Given the entry Cc1cccc(-c2cc(-c3c[nH]nc3-c3ccccn3)ccn2)c1 [UNC10225499A] , report its measured Nuclear Count.
133.11

Given the entry CNc1ncnc2[nH]ncc12 [UNC10243862A] , report its measured Nuclear Count.
108.49

Origin of values: paper PMC9851200
